// provenance: patent US20260008758A1

Exercise: state measured IC50 for each of the compounds provided.
- system.under.test: human DPP1 enzyme (Homo sapiens (Human), UniProt P53634)
- Sequence (P53634 25-134): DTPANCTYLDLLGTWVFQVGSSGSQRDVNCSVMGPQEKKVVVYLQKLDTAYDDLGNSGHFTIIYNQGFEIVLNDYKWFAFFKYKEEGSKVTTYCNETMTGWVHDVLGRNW
- Sequence (P53634 231-394): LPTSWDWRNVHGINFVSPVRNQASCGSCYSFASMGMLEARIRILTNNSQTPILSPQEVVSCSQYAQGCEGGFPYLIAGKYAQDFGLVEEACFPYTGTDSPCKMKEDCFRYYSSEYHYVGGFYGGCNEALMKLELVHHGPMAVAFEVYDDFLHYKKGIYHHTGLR
- Sequence (P53634 395-463): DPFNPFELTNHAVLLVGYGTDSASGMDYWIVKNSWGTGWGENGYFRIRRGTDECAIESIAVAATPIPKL
- test.protocol: Human DPP1 enzyme IC50 assay
- Type: biochemical
- test.conditions: recombinant human DPP1, H-Gly-Arg-AMC substrate 400 μM

Report the value of IC50 obtained on human DPP1 enzyme (Homo sapiens (Human), UniProt P53634) for `CO[C@H](CN(C)C)C(=O)N[C@H](C#N)Cc1ccc(-c2ccc3oc(=O)n(C)c3c2)cc1` .
≥ 15 nM

Provide IC50, recorded with human DPP1 enzyme (Homo sapiens (Human), UniProt P53634), of `CN(C)C[C@H](O)C(=O)N[C@H](C#N)Cc1ccc(-c2ccc3oc(=O)n(CCN4CCOCC4)c3c2)cc1`
≥ 15 nM

Write down measured IC50 (human DPP1 enzyme (Homo sapiens (Human), UniProt P53634)) for this compound. `CN(C)CC(=O)N[C@H](C#N)Cc1ccc(-c2ccc3oc(=O)n(C)c3c2)cc1`
≥ 15 nM

Provide IC50, system human DPP1 enzyme (Homo sapiens (Human), UniProt P53634), entry `Cn1c(=O)oc2ccc(-c3ccc(C[C@@H](C#N)NC(=O)[C@H](N)[C@H]4CCCO4)cc3)cc21`
≥ 15 nM

Given CC(C)C(C)(N)C(=O)N[C@H](C#N)Cc1ccc(-c2ccc3oc(=O)n(C)c3c2)cc1 (some centres unmarked) , report its IC50 on human DPP1 enzyme (Homo sapiens (Human), UniProt P53634).
5 to 15 nM

Answer briefly: IC50 recorded on human DPP1 enzyme (Homo sapiens (Human), UniProt P53634) for Cn1c(=O)oc2ccc(-c3ccc(C[C@@H](C#N)NC(=O)CC(N)Cc4ccccc4)cc3)cc21 (some centres unmarked)
≥ 15 nM

// fetch IC50; item: `Cn1c(=O)oc2ccc(-c3ccc(C[C@@H](C#N)NC(=O)CCNC(=O)c4cccs4)cc3)cc21` ; system: human DPP1 enzyme (Homo sapiens (Human), UniProt P53634)
≥ 15 nM

State IC50 (human DPP1 enzyme (Homo sapiens (Human), UniProt P53634)) of `C=CC[C@@H](N)CC(=O)N[C@H](C#N)Cc1ccc(-c2ccc3oc(=O)n(C)c3c2)cc1` .
≥ 15 nM

Name the recorded IC50 of C[C@H](N)[C@H](O)C(=O)N[C@H](C#N)Cc1ccc(-c2ccc3oc(=O)n(C)c3c2)cc1 [Compound 102C] , assay system human DPP1 enzyme (Homo sapiens (Human), UniProt P53634).
≥ 15 nM

Give IC50 only, for CCN1C(=O)Cc2ccc(-c3ccc(C[C@@H](C#N)NC(=O)[C@](C)(N)C4CCCC4)cc3)cc21 [Compound 259B] , using human DPP1 enzyme (Homo sapiens (Human), UniProt P53634) data.
≥ 15 nM

Please tell me the measured IC50 for Cn1c(=O)oc2ccc(-c3ccc(C[C@@H](C#N)NC(=O)C(C)(CN)Cc4ccccc4F)cc3)cc21 (some centres unmarked) ; system: human DPP1 enzyme (Homo sapiens (Human), UniProt P53634).
≥ 15 nM

Please tell me the measured IC50 for Cn1c(=O)oc2ccc(-c3ccc(C[C@@H](C#N)NC(=O)C(N)Cc4cccnc4O)cc3)cc21 (some centres unmarked) ; system: human DPP1 enzyme (Homo sapiens (Human), UniProt P53634).
≥ 15 nM

State the measured IC50 (human DPP1 enzyme (Homo sapiens (Human), UniProt P53634)) of `Cn1c(=O)oc2ccc(-c3ccc(C[C@@H](C#N)NC(=O)[C@@H](N)Cc4cccnc4)cc3)cc21`
5 to 15 nM

Answer with IC50 of C[C@@H](O)[C@@](C)(N)C(=O)N[C@H](C#N)Cc1ccc(-c2ccc3oc(=O)n(C)c3c2)cc1 [Compound 171C] measured for human DPP1 enzyme (Homo sapiens (Human), UniProt P53634).
≥ 15 nM

Give the observed IC50 of CC(O)CNCC(=O)N[C@@H](C#N)Cc1ccc(-c2ccc3oc(=O)n(C)c3c2)cc1 (some centres unmarked) for human DPP1 enzyme (Homo sapiens (Human), UniProt P53634).
≥ 15 nM

Fill: IC50 (human DPP1 enzyme (Homo sapiens (Human), UniProt P53634)) for this compound `CN(C)C[C@H](O)CC(=O)N[C@H](C#N)Cc1ccc(-c2ccc3oc(=O)n(C)c3c2)cc1`
≥ 15 nM

Give IC50 only, for CCN1C(=O)Cc2ccc(-c3ccc(C[C@@H](C#N)NC(=O)[C@@](C)(N)C4CCCC4)c(F)c3)cc21 [Compound 264A] , using human DPP1 enzyme (Homo sapiens (Human), UniProt P53634) data.
≥ 15 nM

Report the value of IC50 obtained on human DPP1 enzyme (Homo sapiens (Human), UniProt P53634) for `N#Cc1ccc(-c2ccc(C[C@@H](C#N)NC(=O)C3(N)CCOCC3)c(I)c2)cc1` .
≥ 15 nM

Fill: IC50 (human DPP1 enzyme (Homo sapiens (Human), UniProt P53634)) for this compound `CN(C)C[C@H](O)C(=O)N[C@H](C#N)Cc1ccc(-c2ccc3c(n2)CCCN3)cc1F`
≥ 15 nM

Consider the compound CCCCOCCn1c(=O)oc2ccc(-c3ccc(C[C@@H](C#N)NC(=O)C(C)(N)C4CCC4)c(F)c3)cc21 (some centres unmarked) tested on human DPP1 enzyme (Homo sapiens (Human), UniProt P53634); state its IC50.
≤ 5 nM

Look up and report measured IC50 (human DPP1 enzyme (Homo sapiens (Human), UniProt P53634)) for the following compound: `Cn1c(=O)oc2ccc(-c3ccc(C[C@@H](C#N)NC(=O)[C@@H](O)CN)cc3)cc21`
≥ 15 nM

Under human DPP1 enzyme (Homo sapiens (Human), UniProt P53634), report IC50 for CN1CCC2(CCc3ccc(-c4ccc(C[C@@H](C#N)NC(=O)C(C)(N)C5CCC5)c(F)c4)cc32)CC1 (some centres unmarked)
≤ 5 nM

Give IC50; test system human DPP1 enzyme (Homo sapiens (Human), UniProt P53634); compound `C=CC[C@H](N)CC(=O)N[C@H](C#N)Cc1ccc(-c2ccc3oc(=O)n(C)c3c2)cc1`
≥ 15 nM

Give IC50 for this entry on human DPP1 enzyme (Homo sapiens (Human), UniProt P53634): `Cc1ccccc1C[C@@H](CN)C(=O)N[C@H](C#N)Cc1ccc(-c2ccc3oc(=O)n(C)c3c2)cc1`
≥ 15 nM

GET IC50 where system = human DPP1 enzyme (Homo sapiens (Human), UniProt P53634) and item = C[C@@H](N)[C@@H](O)C(=O)N[C@H](C#N)Cc1ccc(-c2ccc3oc(=O)n(C)c3c2)cc1 [Compound 102B]
≥ 15 nM

State the measured IC50 (human DPP1 enzyme (Homo sapiens (Human), UniProt P53634)) of Cn1c(=O)oc2ccc(-c3ccc(C[C@@H](C#N)NC(=O)C(N)Cc4ccon4)cc3)cc21 (some centres unmarked)
≤ 5 nM

Recall the reported IC50 of `CN(C)C[C@H](O)C(=O)N[C@H](C#N)Cc1ccc(-c2ccc3cnn(C4CCN(C5COC5)CC4)c3c2)cc1` on human DPP1 enzyme (Homo sapiens (Human), UniProt P53634) and write it down.
≥ 15 nM

Under human DPP1 enzyme (Homo sapiens (Human), UniProt P53634), report IC50 for `CN(C)C[C@@H](O)CC(=O)N[C@H](C#N)Cc1ccc(-c2ccc3oc(=O)n(C)c3c2)cc1`
≥ 15 nM

Determine reported IC50 for Cn1c(=O)oc2ccc(-c3ccc(C[C@@H](C#N)NC(=O)C(N)Cc4ccccc4O)cc3)cc21 (some centres unmarked) ; test system: human DPP1 enzyme (Homo sapiens (Human), UniProt P53634).
5 to 15 nM

---

- system.under.test: human DPP1 enzyme (Homo sapiens (Human))
- test.protocol: Human DPP1 enzyme single-point percent inhibition testing (HL-60 lysate, H-Gly-Arg-AMC substrate)
- Type: biochemical
- test.conditions: read-out: human DPP1 enzyme % inhibition @ 10 nM, 10 nM compound, 400 μM H-Gly-Arg-AMC, 10 min pre-incubation at 37° C.
- Method: A crude lysate of HL-60 cells (ATCC; Manassas, VA) was used as a source of human DPP1 enzyme in the assay. […] Substrate cleavage was measured for 90 minutes at 37° C., with fluorescence at Excitation/Emission 350/450 nm measured every 5 minutes. […] Percent inhibition at 10 nM was calculated for each test article based on remaining DPP1 activity compared to enzyme activity in wells that received only vehicle control.
What inhibition at 0.01 µM was measured for each of the following?

Return value of inhibition at 0.01 µM for input `CO[C@@H](CN(C)C)C(=O)N[C@H](C#N)Cc1ccc(-c2ccc3c(c2)C2(CC3)CCN(C)CC2)cc1F` , no commentary.
≥ 66.7%

Entry `CO[C@@H](CN(C)C)C(=O)N[C@H](C#N)Cc1ccc(-c2ccc3cnn(C4CCN(C)CC4)c3c2)cc1` needs its inhibition at 0.01 µM filled in; supply it.
40 to 66.7%

Hello, please tell me recorded inhibition at 0.01 µM for this one: `CO[C@@H](CN(C)C)C(=O)N[C@H](C#N)Cc1ccc(-c2ccc3oc(=O)n(CCN4CCOCC4)c3c2)cc1F`
40 to 66.7%

Using the record for `CO[C@@H](CN(C)C)C(=O)N[C@H](C#N)Cc1ccc(-c2ccc3nnn(C)c3c2)cc1` , state its measured inhibition at 0.01 µM.
≤ 40%

Indicate its recorded inhibition at 0.01 µM; the compound in question is `CN(C)C[C@](C)(O)C(=O)N[C@H](C#N)Cc1ccc(-c2ccc3c(c2)C2(CN(C)C2)OC3=O)cc1F`
≥ 66.7%

Give recorded inhibition at 0.01 µM. `CN(C)C[C@](C)(O)C(=O)N[C@H](C#N)Cc1ccc(-c2ccc3cnn(C4CCN(C)CC4)c3c2)cc1`
≥ 66.7%

Write down inhibition at 0.01 µM measured for item `CN(C)C[C@](C)(O)C(=O)N[C@H](C#N)Cc1ccc(-c2cnc3c(n2)CCCC3)cc1F`
40 to 66.7%

Identify measured inhibition at 0.01 µM associated with CN(C)C[C@H](O)C(=O)NC(C#N)Cc1cc2c(cc1F)-c1ccc3oc(=O)n(C)c3c1CO2 (some centres unmarked)
≤ 40%

Kindly indicate its recorded inhibition at 0.01 µM. Item: `COCCN(C)CCn1c(=O)oc2ccc(-c3ccc(C[C@@H](C#N)NC(=O)[C@@](C)(O)CN(C)C)c(F)c3)cc21`
≥ 66.7%

Let me know recorded inhibition at 0.01 µM for `CO[C@@H](CN(C)C)C(=O)N[C@H](C#N)Cc1ccc(-c2ccc3c(c2)C2(CC3)CCN(C)CC2)cc1` , thanks.
40 to 66.7%

Please indicate inhibition at 0.01 µM recorded for `CN(C)C[C@](C)(O)C(=O)N[C@H](C#N)Cc1ccc(-c2ccc(CN3CCN(C)CC3)cc2)cc1`
≤ 40%

Tell me measured inhibition at 0.01 µM for CN(C)C[C@](C)(O)C(=O)NC(C#N)Cc1cc2c(cc1F)-c1cc(C#N)ccc1CO2 (some centres unmarked) please.
≤ 40%

Read off the recorded inhibition at 0.01 µM for `CN(C)C[C@H](O)C(=O)N[C@H](C#N)Cc1ccc(-c2ccc3c(c2)C2(CC3)CCN(C)CC2)cc1`
40 to 66.7%

Return value of inhibition at 0.01 µM for input CO[C@@H](CN(C)C)C(=O)NC(C#N)Cc1cc2c(cc1F)-c1cc(C3COC3)c(F)cc1CO2 (some centres unmarked) , no commentary.
40 to 66.7%
